The measured values listed here are drawn from paper PMC12040169.

# method.description: in vitro
# experimental.context: human, hela cells, % viability
attribute.measured: viability at 28.5 h, 10 µM

Sample records with viability at 28.5 h, 10 µM:
                                   compound  meas_value
0  NC(=O)C1(N2CCCCC2)CCN(C2CC(=O)N(Cc3ccc(N4CCCC4=O)cc3)C2=O)CC1 (stereo not drawn)        102%
1       COC(=O)c1ccc(S(=O)(=O)C(F)(F)F)cc1N        114%
2  Cc1cc(Cc2cccc(Cl)c2)cc(C2CCCN(C(=O)CN3CCCC3=O)C2)n1 (stereo not drawn)         94%
3    Cc1ccc(CN2CCC(O)(Cn3ccc4ncccc43)CC2)o1       97.7%

Provide each entry's viability at 28.5 h, 10 µM from the list below.
1. CCN(CC)C(=O)Cn1ncc2c3sc(C)cc3n(C)c2c1=O
2. Cc1cc(C)n(C2CN(CC(=O)NCc3ccccn3)C2)n1
3. COc1ccc(-c2nc(CCN)n3ccccc23)cc1
4. Cn1c(=O)[nH]c(=O)c2c1nc(SCCN1CCOCC1)n2CCCc1ccccc1
5. Cc1[nH]nc(Nc2ccc(C(=O)O)cc2)c1[N+](=O)[O-]
6. CC(C)(C)C(=O)N1CCc2cc(C(O)CN3CCCC3)ccc21 (stereo not drawn)
7. Cc1cc(NS(=O)(=O)N2CCOCC2)no1
8. Cc1cc(C(=O)CSc2nnc(C(C)C)n2Cc2ccco2)c(C)n1C

["92.9%", "88.3%", "94.3%", "95.5%", "80%", "93%", "89.9%", "81.9%"]

* * *

Record form. Attribute: viability at 28.5 h, 10 µM. Fill in for each entry.
# method.description: in vitro
# experimental.context: human, hela cells, % viability
One number for each entry, in %.

>>> print(df.to_string())
                                   compound  meas_value
0             FC(F)(F)c1ccnc(SCCc2ccncc2)n1        95.3
1  O=C(CN1C(=O)c2ccccc2C1=O)OCC(=O)N1c2ccccc2Sc2ccccc21        91.8
2  Cc1ccc(C)c(CSC2CCN(C3CCOCC3)C2=O)c1 (stereo not drawn)         103
3  COc1ccc(C(=O)C2=C(O)C(=O)N(Cc3cccnc3)C2c2cccc(OC)c2OC)cc1C (stereo not drawn)        92.8
4  CC(C)C(=O)N1CCC(OCc2ccc(-c3ccc(C(=O)N(C)C)cc3)cc2S(C)(=O)=O)CC1         102

Provide each entry's viability at 28.5 h, 10 µM from the list below.
1. COc1ccc(NC(=O)N[C@@H]2C=C[C@@H](c3c(C)nn(CCC#N)c3C)C2)cc1
2. Cc1c(C)n(C)c2ccc(C(=O)NCCC(=O)N3CCOCC3)cc12
3. NC(=O)c1c(NC(=O)CSC2=NCCS2)sc2c1CCCC2

94.2
65.8
87.9

Provide each entry's viability at 28.5 h, 10 µM from the list below.
1. COc1cc(CNCC2CCCO2)cc(Cl)c1OCC(N)=O (stereo not drawn) [CBK270238C]
2. O=C(O)c1csc(S(=O)(=O)Nc2ccc(Br)cc2Cl)c1
3. CN1CCN(c2nc(Nc3ccc(Cl)cc3)nc(Oc3ccccc3)n2)CC1
4. O=c1[nH]nc(SCCOc2c(Cl)c(Cl)c(Cl)c(Cl)c2Cl)c(=O)[nH]1
5. COc1ccc(Nc2cccc(-c3ccc(CCC(=O)O)cc3)n2)cc1
6. O=C(CSc1nnc2[nH]c(=O)ccn12)NCc1ccccc1Cl

1. 88.4
2. 101
3. 107
4. 91
5. 106
6. 95.1

# get_value(readout='viability at 28.5 h, 10 µM', item= `COc1ccc(-n2nc3cc(C)c(NC(=S)NC(=O)/C=C/c4ccco4)cc3n2)cc1` )
109
